Sourced from patent US20250215012A1

# DC50 values compiled below
- assayed-system: IKZF2 (Homo sapiens (Human), UniProt Q96SW2+Q9UKS7)
- Sequence (Q9UKS7 whole entry): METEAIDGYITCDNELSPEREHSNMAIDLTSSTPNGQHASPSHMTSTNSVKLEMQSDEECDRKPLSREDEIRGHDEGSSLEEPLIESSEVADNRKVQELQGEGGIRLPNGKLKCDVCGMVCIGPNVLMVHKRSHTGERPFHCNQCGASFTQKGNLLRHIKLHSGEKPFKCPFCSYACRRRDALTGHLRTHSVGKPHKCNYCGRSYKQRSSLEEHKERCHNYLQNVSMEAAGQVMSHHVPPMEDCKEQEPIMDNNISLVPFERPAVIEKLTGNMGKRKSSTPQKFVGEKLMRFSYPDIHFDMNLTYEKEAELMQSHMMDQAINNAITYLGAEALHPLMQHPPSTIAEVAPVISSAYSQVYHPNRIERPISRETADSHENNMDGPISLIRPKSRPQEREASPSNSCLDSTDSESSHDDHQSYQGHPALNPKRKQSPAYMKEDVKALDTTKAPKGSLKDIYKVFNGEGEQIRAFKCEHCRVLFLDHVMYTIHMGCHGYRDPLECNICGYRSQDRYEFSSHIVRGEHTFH
- Sequence (Q96SW2 whole entry): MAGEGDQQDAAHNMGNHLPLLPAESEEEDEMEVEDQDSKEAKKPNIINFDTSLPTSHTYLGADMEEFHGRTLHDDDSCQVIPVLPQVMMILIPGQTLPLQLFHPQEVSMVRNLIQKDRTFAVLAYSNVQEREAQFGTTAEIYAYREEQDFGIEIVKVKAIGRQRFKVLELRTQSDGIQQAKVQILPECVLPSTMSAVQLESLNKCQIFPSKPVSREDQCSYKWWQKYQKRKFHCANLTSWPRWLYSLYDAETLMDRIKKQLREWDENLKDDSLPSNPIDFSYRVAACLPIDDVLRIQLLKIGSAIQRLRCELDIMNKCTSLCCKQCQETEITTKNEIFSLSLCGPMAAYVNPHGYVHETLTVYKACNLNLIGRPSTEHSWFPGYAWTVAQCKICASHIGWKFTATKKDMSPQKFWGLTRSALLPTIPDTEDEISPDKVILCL
- Sequence (Q16531 whole entry partner): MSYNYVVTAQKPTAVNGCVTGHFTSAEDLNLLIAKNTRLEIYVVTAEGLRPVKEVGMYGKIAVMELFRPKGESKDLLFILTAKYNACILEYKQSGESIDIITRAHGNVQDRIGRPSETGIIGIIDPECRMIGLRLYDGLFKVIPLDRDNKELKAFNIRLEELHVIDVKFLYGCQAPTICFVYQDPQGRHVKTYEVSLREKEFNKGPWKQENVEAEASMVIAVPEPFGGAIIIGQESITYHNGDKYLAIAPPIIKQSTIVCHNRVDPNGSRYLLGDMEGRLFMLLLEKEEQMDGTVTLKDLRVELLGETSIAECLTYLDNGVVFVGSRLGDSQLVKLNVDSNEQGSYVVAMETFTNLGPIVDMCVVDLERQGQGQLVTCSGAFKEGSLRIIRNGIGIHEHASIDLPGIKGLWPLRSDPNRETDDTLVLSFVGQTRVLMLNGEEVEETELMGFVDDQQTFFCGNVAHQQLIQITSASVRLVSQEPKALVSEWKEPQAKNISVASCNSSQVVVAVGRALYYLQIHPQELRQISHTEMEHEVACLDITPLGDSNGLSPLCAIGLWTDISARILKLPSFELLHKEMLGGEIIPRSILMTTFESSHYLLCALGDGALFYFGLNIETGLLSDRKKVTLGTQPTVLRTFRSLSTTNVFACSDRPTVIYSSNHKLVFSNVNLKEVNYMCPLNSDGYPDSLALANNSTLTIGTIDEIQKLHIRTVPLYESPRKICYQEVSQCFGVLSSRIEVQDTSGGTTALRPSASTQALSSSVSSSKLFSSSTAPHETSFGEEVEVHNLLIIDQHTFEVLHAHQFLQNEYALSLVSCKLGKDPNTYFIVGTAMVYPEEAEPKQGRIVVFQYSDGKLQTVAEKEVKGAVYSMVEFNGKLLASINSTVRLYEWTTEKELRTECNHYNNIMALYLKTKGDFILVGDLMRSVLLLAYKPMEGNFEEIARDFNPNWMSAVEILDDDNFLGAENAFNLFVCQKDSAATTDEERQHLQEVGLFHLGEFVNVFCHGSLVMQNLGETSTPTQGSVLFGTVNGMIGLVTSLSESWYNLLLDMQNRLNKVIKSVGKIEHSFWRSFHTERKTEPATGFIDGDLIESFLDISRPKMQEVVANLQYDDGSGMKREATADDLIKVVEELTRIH
- procedure-text: IKZF2 HiBiT Assay (Jurkat-IKZF2-HiBiT cell line)
- Type: cell-based
- condition-set: Jurkat-IKZF2-HiBiT cells, 24 hours; read-out: HiBit assay degradation analysis DC50

Here is how some compounds turned out for DC50.
O=C1CCC(N2Cc3c(ccc4c3OCC43CCN(Cc4cc(F)cc5ccoc45)CC3)C2=O)C(=O)N1 (stereo not shown) = 200 to 500 nM
O=C1CCC(N2Cc3c(ccc4c3COC43CCN(Cc4cccc(-c5cc[nH]n5)c4)CC3)C2=O)C(=O)N1 (stereo not shown) = > 500 nM
O=C1CCC(N2Cc3c(ccc4c3OCC43CCN(Cc4cccc5cc[nH]c45)CC3)C2=O)C(=O)N1 (stereo not shown) = 50 to 200 nM
O=C1CCC(N2Cc3c(ccc4c3OCC43CCN(Cc4ccc5ncccc5c4)CC3)C2=O)C(=O)N1 (stereo not shown) = 200 to 500 nM
CC1(C)CCC(CN2CCC3(CC2)COc2c3ccc3c2CN(C2CCC(=O)NC2=O)C3=O)CC1 (stereo not shown) = > 500 nM
O=C1CC[C@H](N2Cc3c(ccc4c3OCC43CCN(Cc4cccc(-c5ccn(C(F)F)n5)c4)CC3)C2=O)C(=O)N1 = < 50 nM

Continue with the compound presented below.
INPUT: Requested field: DC50. Item: O=C1CCC(N2Cc3c(ccc4c3OCC43CCN(Cc4cccc5ccccc45)CC3)C2=O)C(=O)N1 (stereo not shown)
OUTPUT: < 50 nM
